Recorded viability, T/C, one value per entry.
tested on: A498 complex spheroid viability; experiment: Anticancer human tumor A498 cell line growth inhibition; settings: second compound 3.16 µM; first compound 0.000316 µM; active compounds read low;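 also: spheroids exposed to agents for seven days before readout; 100% = DMSO vehicle-treated spheroids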
measurement-type: viability, T/C (%)

molecule="Cn1ncnc1C1c2n[nH]c(=O)c3cc(F)cc(c23)NC1c1ccc(F)cc1 (stereo not drawn) + NC1CC1c1ccc(-c2cccc(O)c2)cc1" units_of_measure=% value=87
molecule="CC(C)CC(NC(=O)CNC(=O)c1cc(Cl)ccc1Cl)B1OC(=O)CC(CC(=O)O)(C(=O)O)O1 (stereo not drawn) + NC1CC1c1ccc(-c2cccc(O)c2)cc1" units_of_measure=% value=91.8
molecule="CC(C)CC(NC(=O)C(Cc1ccccc1)NC(=O)c1cnccn1)B(O)O (stereo not drawn) + NC1CC1c1ccc(-c2cccc(O)c2)cc1" units_of_measure=% value=95.6
molecule="CC[C@@]1(O)C(=O)OCc2c1cc1n(c2=O)Cc2cc3c(CN(C)C)c(O)ccc3nc2-1 + NC1CC1c1ccc(-c2cccc(O)c2)cc1" units_of_measure=% value=104
molecule="CC(C)CC(NC(=O)C(Cc1ccccc1)NC(=O)c1cnccn1)B(O)O (stereo not drawn) + NC1CCC(NC2CC2c2ccccc2)CC1" units_of_measure=% value=78.5
molecule="CC(C)CC(NC(=O)CNC(=O)c1cc(Cl)ccc1Cl)B1OC(=O)CC(CC(=O)O)(C(=O)O)O1 (stereo not drawn) + NC1CCC(NC2CC2c2ccccc2)CC1" units_of_measure=% value=84.3
molecule="CC[C@@]1(O)C(=O)OCc2c1cc1n(c2=O)Cc2cc3c(CN(C)C)c(O)ccc3nc2-1 + NC1CCC(NC2CC2c2ccccc2)CC1" units_of_measure=% value=78.7
molecule="Cn1ncnc1C1c2n[nH]c(=O)c3cc(F)cc(c23)NC1c1ccc(F)cc1 (stereo not drawn) + NC1CCC(NC2CC2c2ccccc2)CC1" units_of_measure=% value=83.8

* * *

tested on: A498 complex spheroid viability; experiment: Anticancer human tumor A498 cell line growth inhibition; details: second compound 0.1 µM; first compound 0.00949 µM; active compounds read low;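 also: spheroids exposed to agents for seven days before readout; 100% = DMSO vehicle-treated spheroids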
measurement-type: viability, T/C (%)

compound="Nc1ncn(C2CC(O)C(CO)S2)c(=O)n1 (configuration not stated) + NC1CC1c1ccc(-c2cccc(O)c2)cc1" value=115
compound="Nc1ccccc1NC(=O)c1ccc(CNC(=O)OCc2cccnc2)cc1 + NC1CCC(NC2CC2c2ccccc2)CC1" value=80.6
compound="Nc1ncn(C2CC(O)C(CO)S2)c(=O)n1 (configuration not stated) + NC1CCC(NC2CC2c2ccccc2)CC1" value=88.6
compound="COc1cc(C2c3cc4c(cc3C(OC3OC5COC(C)OC5C(O)C3O)C3COC(=O)C23)OCO4)cc(OC)c1O (configuration not stated) + NC1CC1c1ccc(-c2cccc(O)c2)cc1" value=75.3
compound="O=C(C=Cc1cccc(S(=O)(=O)Nc2ccccc2)c1)NO + NC1CCC(NC2CC2c2ccccc2)CC1" value=81.5
compound="COc1cc(C2c3cc4c(cc3C(OC3OC5COC(C)OC5C(O)C3O)C3COC(=O)C23)OCO4)cc(OC)c1O (configuration not stated) + NC1CCC(NC2CC2c2ccccc2)CC1" value=81.8
compound="CCN(c1cc(-c2ccc(CN3CCOCC3)cc2)cc(C(=O)NCc2c(C)cc(C)[nH]c2=O)c1C)C1CCOCC1 + NC1CCC(NC2CC2c2ccccc2)CC1" value=85.8
compound="Nc1ccn(C2OC(CO)C(O)C2(F)F)c(=O)n1 (configuration not stated) + NC1CCC(NC2CC2c2ccccc2)CC1" value=41.2
compound="Nc1ccccc1NC(=O)c1ccc(CNC(=O)OCc2cccnc2)cc1 + NC1CC1c1ccc(-c2cccc(O)c2)cc1" value=89.5
compound="CCN(c1cc(-c2ccc(CN3CCOCC3)cc2)cc(C(=O)NCc2c(C)cc(C)[nH]c2=O)c1C)C1CCOCC1 + NC1CC1c1ccc(-c2cccc(O)c2)cc1" value=98.8
compound="CCc1c2c(nc3ccc(O)cc13)-c1cc3c(c(=O)n1C2)COC(=O)[C@]3(O)CC + NC1CCC(NC2CC2c2ccccc2)CC1" value=26.7
compound="Nc1ccn(C2OC(CO)C(O)C2(F)F)c(=O)n1 (configuration not stated) + NC1CC1c1ccc(-c2cccc(O)c2)cc1" value=98.4
